Origin of the recorded values: patent US20250355001A1

Tested on: hT40, dGA, dGAE and truncated tau fragments
ASSAY_INFO: Binding ELISA / epitope mapping of anti-tau scAbs with truncated tau proteins and 13mer peptides
Design: species or system human
STUDY_CONDITIONS: second Table 25; mAb format
ASSAY_METRIC: hT40 binding region

MOLECULE | hT40 binding region
CE2: anti-tau core clone, Table 10; SEQ ID NO: 366 (protein, CE2/E1B8 amino acid sequence) scFv: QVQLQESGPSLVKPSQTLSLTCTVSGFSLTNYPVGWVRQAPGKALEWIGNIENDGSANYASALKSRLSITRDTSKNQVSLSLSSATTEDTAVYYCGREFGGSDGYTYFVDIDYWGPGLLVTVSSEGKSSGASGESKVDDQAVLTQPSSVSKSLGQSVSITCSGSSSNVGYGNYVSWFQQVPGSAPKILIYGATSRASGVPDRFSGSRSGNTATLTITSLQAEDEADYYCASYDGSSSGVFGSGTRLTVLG | 319-331

Switching to the query record.
// query Which hT40 binding region is listed for MD9: anti-tau clone, Table 10; SEQ ID NO: 373 (protein, MD9 amino acid sequence) scFv: QVRLQESGPSLVKSSQTLSLTCTVSGFSLTRESIAWVRQAPGKVPEWLGGVGIDGTSYYSPALKSRLSITRDTSKSQASLSLSSVATEDTAMYYCARNYIDFEYWGPGLLVTVSSEGKSSGASGESKVDDQAVLTQLSSVSGSLGQRISITCSGSSSNVGIYDVSWFQQLPGSGLRTVIYGTNNRPSGVPDRFSGSRSGNTATLTISSLQSEDEAIYYCAAGDSSTIAVFGSGTRLTVLG ?
// result 373-385
